- Tested on: S. cerevisiae expressing PfHSP40, growth rescue, plate reader
- test.name: Yeast growth rescue from Plasmodium falciparum HSP40 toxicity, dose response confirmatory, plate reader (AID 540271);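 further: yeast growth read after three days of incubation at 30 °C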
Activity calls are given as the source filed them. How the calls were made is not given here.
API: response.call in 1 (active), 0 (inactive)

Reference set, count: 8
{"molecule": "Cc1cc(C(=O)N/N=C/c2ccc(O)c(O)c2O)c(C)n1-c1ccccc1", "category": 1}
{"molecule": "Cc1cccc(Oc2nc(-c3ccccn3)nc3ccccc23)c1", "category": 1}
{"molecule": "CC(=O)C1=C(c2ccc(Br)cc2)C(=O)c2ccccc2C1=O", "category": 1}
{"molecule": "CCOC(=O)c1ccc(N2C(=O)CC(N(C)CCc3ccc(OC)c(OC)c3)C2=O)cc1 (stereo unspecified)", "category": 1}
{"molecule": "COc1cc(NC(=O)CSc2ccc(-c3ccccn3)nn2)cc(OC)c1", "category": 1}
{"molecule": "Clc1ccc(CSC(Cn2ccnc2)c2ccc(Cl)cc2Cl)cc1 (stereo unspecified)", "category": 1}
{"molecule": "Cc1cccc(C)c1N1C(=O)C2ON(c3ccccc3)C(c3ccncc3)C2C1=O (stereo unspecified)", "category": 1}
{"molecule": "COc1cccc(NC=C2C(=O)OC3(CCCCC3)OC2=O)c1", "category": 1}

Query: recorded result category for CCCCC(=O)NC(c1ccc(N(C)C)cc1)c1ccc2cccnc2c1O (stereo unspecified) in this test
1

Query: recorded result category for COc1ccc2c(c1)[C@H]1[C@H](CO2)[C@H](c2ccccc2)[C@]2(C)C(=O)Nc3ccc(Cl)cc3C(=O)N12 in this test
0

Query: recorded result category for C=CCn1c(-c2cc(-c3ccc(C)cc3)nc3ccccc23)n[nH]c1=S in this test
1
